# assayExplanation: yeast display, Sf9 membrane polyspecificity reagent, FACS + sequencing; frameworks hold sequencing errors
experimentalEndpoint: polyreactivity (PSR sort gate)

# count of solved cases: 8
Answer with the recorded polyreactivity (PSR sort gate) for the sequence listed here: QVQLVESGGGLVQAGGSLRLSCAASGIIFVYNTMGWYRQAPGKERELVAAISYSGGGTYYADSVKGRFTISRDNAKNTVYLQMNSLKPEDTAVYYCAAETYYAPYDYWGQGTQVTVSS
high polyreactivity

Answer with the recorded polyreactivity (PSR sort gate) for the sequence listed here: QVQLVESGGGLVQAGGSLRLSCAASGLTYWAYAMGWYRQAPGKERDFVAAISWSGDSTYYADSVKGRYTISRDNAKNTVYLQMNSLKPEDTAVYYCAAEWYYVYIAPYDYLGQGTQVTVSS
low polyreactivity

Answer with the recorded polyreactivity (PSR sort gate) for the sequence listed here: QVQLVESGGGLVQAGGSLRLSCAASGRICDFYSMGWYRQAPGKERELVAAIDSDGSTNYADSVKGRFTISRDNAKNNVYLQMNSLKPEDTAVSYCNADIWAYTYRRYDYWGQGTQVTVSS
low polyreactivity

Answer with the recorded polyreactivity (PSR sort gate) for the sequence listed here: QVQLVESGGGLVQAGGSLRLSCAASGFTFHNNVMGWYRQAPGKERELVATISKSGGSTYYADSVKGRFTISRDNAKNTVYLQMNSLKPEDTAVYYCAALYPYQYVRGGYWGQGTQVTVSS
high polyreactivity

Answer with the recorded polyreactivity (PSR sort gate) for the sequence listed here: QVQRVESGGGLVQAGGSLRLSCAASGSIFGPNTIGWSRQAPGKERDLVAAITRSGGSTYYADSVKGRFTISRDNAKNTVYLQMNSLKPEDTAVYYCAVGDGFEYDWGQGTQVTVSS
low polyreactivity

Answer with the recorded polyreactivity (PSR sort gate) for the sequence listed here: QVQLVESWGGVVQAGGSLRISCAASGFILARYAMGWYRQAPGKERELVAAIRRSGGGTYYADSVKGRFTISRDNAKYTVYLLMKSLKPEDTAVYYCNRDPTYLAYYINYDSWGQGTQVTVSS
high polyreactivity

Answer with the recorded polyreactivity (PSR sort gate) for the sequence listed here: QVQLVESGGGLVQAGGSLRLSCAASGITFFLYAMGWYRQAPGKERELVAVISASGGSTYYADSVKGRFTISRDNAKNTVYLQMNSLKPEDTAVYYCAAGYRFYGFYAHDYWGQGTQVTVSS
high polyreactivity

Answer with the recorded polyreactivity (PSR sort gate) for the sequence listed here: QVQLVESGGGLVQAGGSLRLSCAASGNIFRSYAMGWYRQAPGKERELVAAISSRGGSTYYADSVKGRFTISRDNAKNTVYLQMNSLKPEDTAVYYCNAPSTQQGPKYDYWGQGTQVTVSS
low polyreactivity

Further cases:
Answer with the recorded polyreactivity (PSR sort gate) for the sequence listed here: QVQLVESGGGLVQAGGSLRLSCAASGRTFTRYAMGLYRQAPGKERELVAGITGRAGSTYYADSVKGRFTISRDNAKNTVYLQMNSLKPEDTAVYYCAADAGYRRSSLYEYDYWGHGTQVTVSS
low polyreactivity

Answer with the recorded polyreactivity (PSR sort gate) for the sequence listed here: QVQLVESVGGLDQAGGSLRLSCAASGRIFRYYAMGWDRQAPGKERELVAAITSDGRTYYADSVKGRFTISRDNAKNTVYLQMNSLKPEDTAVYYCAADHHSYRYGGYYYWGQGTQVTVSS
low polyreactivity

Answer with the recorded polyreactivity (PSR sort gate) for the sequence listed here: QVQLVESGGGLVQAGGSLRLSCAASALTFGSNAMGWYRQAPGKERELVAAISRSGGTTYYADSVKGRFTISRDNAKNTVYLQMNSLKPEDTAVYYCATRPYSPWRHYYWGQGTQVTVSS
high polyreactivity
